# tested system: human GPR84 receptor (Homo sapiens)
# Construct: frozen aliquots prepared by acCELLerate
# Sequence (Q9NQS5 whole entry): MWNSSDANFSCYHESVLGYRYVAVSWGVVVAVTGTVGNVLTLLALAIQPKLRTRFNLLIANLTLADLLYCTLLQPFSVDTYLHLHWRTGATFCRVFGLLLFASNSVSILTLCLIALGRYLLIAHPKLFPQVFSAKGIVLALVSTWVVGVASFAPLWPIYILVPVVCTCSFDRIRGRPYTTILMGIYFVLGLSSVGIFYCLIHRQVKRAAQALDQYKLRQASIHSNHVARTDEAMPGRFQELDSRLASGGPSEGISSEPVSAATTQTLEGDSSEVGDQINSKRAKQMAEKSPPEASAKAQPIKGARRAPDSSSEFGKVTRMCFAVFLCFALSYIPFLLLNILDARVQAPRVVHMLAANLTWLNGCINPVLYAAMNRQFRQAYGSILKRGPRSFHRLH
# assay notes: cAMP HTRF assay for identification of cellular GPR84 antagonists
# condition notes: CHO-K1 cells stably expressing human GPR84; Forskolin + agonist 6-OAU (EC80); average or median values
pIC50: −log10 of the molar value.
readout kind: pIC50

>>> quantitative_result("Cc1c(C(=O)NC[C@@H]2COCCO2)oc2c1-c1nn(Cc3cncnc3)cc1CC2 [Example 86]")
6.74

(P) Cn1ccc(CNC(=O)c2oc3c(c2C2CC2)-c2nn(Cc4ccccn4)cc2CC3)n1 [Example 121]
(Q) CC1Cc2oc(C(=O)NC[C@@H]3COCCO3)c(C(F)(F)F)c2-c2nn(C[C@H]3COCCO3)cc21 (mixture of isomers) [Example 254]
(R) Cc1c(C(=O)NCC2CN(C)CCO2)oc2c1-c1nn(Cc3ccccn3)cc1CC2 (racemic) [Example 38]
// ranking: key=pIC50, reverse=True Answer by naming the labels in the order asked.
Q, P, R
(Q: 8.22, P: 7.17, R: 6.15)

(1) COC(=O)N1CC(F)(Cn2cc3c(n2)-c2c(oc(C(=O)NC[C@@H]4CCCO4)c2C)CC3)C1 [Example 167]
(2) CC(=O)N1CC(F)(Cn2cc3c(n2)-c2c(oc(C(=O)NC[C@@H]4CCCO4)c2C)CC3)C1 [Example 165]
(3) Cc1cc(Cn2cc3c(n2)-c2c(oc(C(=O)NC[C@@H]4COCCO4)c2C)CC3)cc(C)n1 [Example 82]
(4) Cc1c(C(=O)NC[C@@H]2COCCO2)oc2c1-c1nn(Cc3ccncc3)cc1CC2 [Example 47]
(5) Cc1c(C(=O)NCC2CCC(=O)O2)oc2c1-c1nn(Cc3ccccn3)cc1CC2 (single isomer, unassigned) [Example 39-2]
Order the records, beginning with the lowest pIC50 and ending with the highest. Give your ranking as a list of the labels in the requested order.
5, 3, 2, 1, 4
(5: 5.15, 3: 6.36, 2: 6.96, 1: 7.22, 4: 7.72)

(I) CC1Cc2oc(C(=O)NC[C@@H]3CCCO3)c(C(F)(F)F)c2-c2nn(C[C@H]3COCCO3)cc21 (mixture of isomers) [Example 255]
(II) Cc1c(C(=O)NC[C@@H]2CCCO2)oc2c1-c1nn(CC3(F)CN(C(=O)OCc4ccccc4)C3)cc1CC2 [Example 155]
Given I and II , report the one with the higher recorded pIC50. Identify your selection by its label.
I
(I: 8.30, II: 7.89)

* * *

# tested system: human GPR84 receptor (Homo sapiens)
# Construct: frozen aliquots prepared by acCELLerate
# assay notes: cAMP HTRF assay for identification of cellular GPR84 antagonists
# condition notes: CHO-K1 cells stably expressing human GPR84; Forskolin + agonist 6-OAU (EC80); average or median values
readout kind: IC50 (nM)

>>> quantitative_result("Cc1cccnc1Cn1cc2c(n1)-c1c(oc(C(=O)NC[C@@H]3CCCO3)c1C)CC2")
110
>>> quantitative_result("Cc1c(C(=O)NC[C@@H]2CCCO2)oc2c1-c1nn(Cc3cccnc3)cc1CC2")
18
>>> quantitative_result("Cc1cc(CNC(=O)c2oc3c(c2C)-c2nn(Cc4ccccn4)cc2CC3)no1")
210

(1) COc1cccc(-c2cc(CNC(=O)c3oc4c(c3C)-c3nn(Cc5ccccn5)cc3CC4)no2)c1
(2) CC(=O)N1CCC(Cn2cc3c(n2)-c2c(oc(C(=O)NC[C@@H]4COCCO4)c2C(F)(F)F)CC3)CC1
Given 1 and given 2 , which shows the smaller recorded IC50? Kindly state the label of the option you pick.
2
(2: 27 nM, 1: 4790 nM)

(a) Cc1c(C(=O)NCc2ccccn2)oc2c1-c1nn(Cc3ccccn3)cc1CC2
(b) Cc1ccc(CNC(=O)c2oc3c(c2C)-c2nn(Cc4ccccn4)cc2CC3)cc1
Of the two listed items, a and b , which carries the larger IC50 figure? Answer by stating the label of the chosen item.
a

(I) Cc1cccnc1Cn1cc2c(n1)-c1c(oc(C(=O)NC[C@@H]3COCCO3)c1C)CC2
(II) O=C(NC[C@@H]1CCCO1)c1oc2c(c1C(F)(F)F)-c1nn(C[C@H]3COCCO3)cc1CC2
(III) Cc1c(C(=O)NC[C@@H]2CCCO2)oc2c1-c1nn(CCN)cc1CC2
Ordering criterion: IC50; begin with the maximum. Please list the labels according to the requested order.
III, I, II
(III: 2540 nM, I: 60 nM, II: 8 nM)

(1) O=C(NC[C@@H]1CCCO1)c1oc2c(c1C(F)(F)F)-c1nn(C[C@H]3COCCO3)cc1C1(CC1)C2
(2) Cc1c(C(=O)NC[C@@H]2COCCO2)oc2c1-c1nn(Cc3ccccn3)cc1C(C)C2 (mixture of isomers)
(3) Cc1c(C(=O)NC[C@@H]2CCCO2)oc2c1-c1nn(Cc3ncccc3Cl)cc1CC2
(4) CC(=O)N1CC(Cn2cc3c(n2)-c2c(oc(C(=O)NC[C@@H]4CCCO4)c2C)CC3)C1
(5) Cc1c(C(=O)NCc2cc(-c3ccccc3Cl)on2)oc2c1-c1nn(Cc3ccccn3)cc1CC2
Put the molecules in ascending order of IC50. Returns: the labels listed in the requested order.
1, 3, 2, 4, 5
(1: 10 nM, 3: 27 nM, 2: 75 nM, 4: 980 nM, 5: 10100 nM)
